# TESTED_TARGET: PAR2 (HT-29 cells) (Homo sapiens)
# Construct: host or cells: HT-29
# Sequence (P55085 26-397): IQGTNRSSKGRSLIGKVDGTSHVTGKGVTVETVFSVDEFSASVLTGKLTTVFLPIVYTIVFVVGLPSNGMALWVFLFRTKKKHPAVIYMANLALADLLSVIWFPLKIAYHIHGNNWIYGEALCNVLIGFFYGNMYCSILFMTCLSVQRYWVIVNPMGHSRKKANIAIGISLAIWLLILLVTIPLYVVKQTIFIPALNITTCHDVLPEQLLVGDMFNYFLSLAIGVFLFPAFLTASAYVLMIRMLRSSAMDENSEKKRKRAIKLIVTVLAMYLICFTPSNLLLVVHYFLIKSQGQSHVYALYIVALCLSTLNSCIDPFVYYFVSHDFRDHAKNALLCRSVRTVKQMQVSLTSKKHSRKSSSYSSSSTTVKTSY
# EXPERIMENT_SUMMARY: Ca FLIPR TETRA assay, ANTAGONIST mode, activator 8 μM SLIGKV
# Type: cell-based
# REPORTED_CONDITIONS: HT-29 cells; activator 8 μM SLIGKV; Method A: maximal concentration of antagonist 0.1, 1 or 2 μM
QUANTITY_NAME: IC50 (nM)

Solved cases (4 shown):
CC(C)(C)c1cc(-c2ccc(Cl)c(F)c2)nc2cc(C(=O)N3CCN(C(=O)CC4(C(=O)O)CCCC4)CC3(C)C)oc12 [Example I-324]: 0.2
CC1(C)CCC(c2cc(C(C)(C)C)c3oc(C(=O)N4CCN(C(=O)c5ccc(C(=O)O)cn5)CC4(C)C)cc3n2)CC1 [Example I-379]: 26
CC(C)(C)c1cc(-c2ccc(Cl)c(F)c2)nc2cc(C(=O)N3CCN(c4ncc(C(=O)O)cc4F)CC3(C)C)oc12 [Example I-396]: 0.3
Cc1nc(N2CCN(C(=O)c3cc4nc(-c5ccc(Cl)c(F)c5)cc(C(C)(C)C)c4o3)C(C)(C)C2)ccc1C(=O)O [Example I-411]: 0.2

[A] CC(C)(C)c1cc(-c2ccc(Cl)c(F)c2)nc2cc(C(=O)N3CCN(c4ncncc4C(=O)O)CC3(C)C)oc12 [Example I-519]
[B] CC(C)(C)c1cc(-c2ccc(Cl)c(F)c2)nc2cc(C(=O)N3CCN(c4ccnnc4)CC3(C)C)oc12 [Example I-348]
[C] Cc1nc(N2CCN(C(=O)c3cc4nc(-c5ccc(Cl)c(F)c5)cc(C(C)(C)C)c4o3)C(C)(C)C2)ncc1C(=O)O [Example I-466]
Q) Rank ascending by IC50. Reply with the labels, ordered as the question asks.
A) C, A, B

[I] CC(C)(C)c1cc(-c2ccc(Cl)c(F)c2)nc2cc(C(=O)N3CCC(CC(=O)O)CC3(C)C)oc12 (stereo not shown) [Example I-299]
[II] CC(CC(=O)N1CCN(C(=O)c2cc3nc(-c4ccc(Cl)c(F)c4)cc(C(C)(C)C)c3o2)C(C)(C)C1)C(=O)O (single isomer, unassigned) [Example I-513]
[III] Cc1oc(C2CCN(C(=O)c3cc4nc(C5CCC(C)(C)CC5)cc(C(C)(C)C)c4o3)C(C)(C)C2)nc1C(=O)O (stereo not shown) [Example I-425]
[IV] CC(C)(C)c1cc(-c2ccc(Cl)cc2)nc2cc(C(=O)N3CCN(c4ccn[nH]4)C(=O)C3(C)C)oc12 [Example I-407]
[V] CC(C)(C)c1cc(-c2ccc(Cl)c(F)c2)nc2cc(C(=O)N3CCN(c4cccc(C(=O)O)n4)C(=O)C3(C)C)oc12 [Example I-459]
Q) Arrange the 5 compounds by rising IC50, starting with the smallest. # list labels per requested ordering
A) I, III, II, V, IV
